Each recorded value in this set is attributed to patent US6380384B1.

// endpoint IC50 / system mitochondrial diazepam binding inhibitor receptor (MDR) (Rattus norvegicus)
PARAMETER: IC50 (nM)

COMPOUND: CCCCCCN(CCCCCC)C(=O)c1cc2ccc(Cl)cc2n(Cc2ccccc2)c1=O [Compound 23]
PARAMETER: IC50
VAL: 0.132

COMPOUND: CCCCCCN(CCCCCC)C(=O)c1cc2ccccc2n(Cc2ccccc2)c1=O [Compound 05]
PARAMETER: IC50
VAL: 0.159

COMPOUND: CCCCCCN(CCCCCC)C(=O)c1cc2ccccc2n(Cc2ccccn2)c1=O [Compound 18]
PARAMETER: IC50
VAL: 0.404

COMPOUND: CCCCCCN(CCCCCC)C(=O)c1cc2ccccc2n(CCc2ccccc2)c1=O [Compound 21]
PARAMETER: IC50
VAL: 6.58

COMPOUND: CCCN(CCC)C(=O)c1cc2ccccc2n(Cc2ccccc2)c1=O [Compound 04]
PARAMETER: IC50
VAL: 1.71

COMPOUND: CCCCCCN(CCCCCC)C(=O)c1cc2ccccc2n(Cc2cccnc2)c1=O [Compound 19]
PARAMETER: IC50
VAL: 0.368

COMPOUND: CCCCCCN(CCCCCC)C(=O)c1cc2ccccc2n(Cc2ccncc2)c1=O [Compound 20]
PARAMETER: IC50
VAL: 0.192

COMPOUND: CCCCCCCCCCN(CCCCCCCCCC)C(=O)c1cc2ccccc2n(Cc2ccccc2)c1=O [Compound 06]
PARAMETER: IC50
VAL: 53.4
